system: HepG2; test: GSK_TCMDC: Percent inhibition of human HepG2 cell line. Test compounds present at 10uM.; type: functional
Experimental Readout: Inhibition
Answers without a unit are incomplete; give the number and then its unit.

q: State its Inhibition on HepG2: CC(C)(C)COC(=O)c1ccc(NC(=O)N[C@@H](Cc2ccc(O)cc2)C(=O)NC2CCN(Cc3ccc(O)cc3)C2)cc1.O=C(O)C(F)(F)F (some centres undefined)
a: 3%

q: State its Inhibition on HepG2: Br.Cc1ccccc1OCCCON1C(=N)N=C(N)NC1(C)C
a: 66%

q: State its Inhibition on HepG2: COc1ccc(NC(=O)/C=C/c2ccccc2Cl)cc1OCCN1CCC(c2nc3ccccc3[nH]2)CC1.Cl
a: 35%

q: State its Inhibition on HepG2: CCN1CCC(N(Cc2ccc(-c3ccc(C(F)(F)F)cc3)cc2)C(=O)Cn2c(CCc3cccc(F)c3F)cc(=O)c3ccccc32)C1.O=C(O)C(O)C(O)C(=O)O (centres undefined)
a: 43%

---

system: Plasmodium falciparum; test: GSK_TCMDC: Inhibition of Plasmodium falciparum 3D7 in whole red blood cells, using parasite LDH activity as an index of growth. Test compounds present at 2uM; assay type: functional
Experimental Readout: Inhibition (%)
Field format: number, assumed %, no unit text.

q: # query: Inhibition of entry O=[N+]([O-])c1cccc(NC(=S)N2CCCN(Cc3ccc(Cl)cc3Cl)CC2)c1
a: 94

q: # query: Inhibition of entry COCCN1CCC(N(Cc2ccc(-c3ccc(C(F)(F)F)cc3)cc2)C(=O)Cn2c(CCc3cccc(F)c3F)cc(=O)c3c2CCC3)CC1.O=C(O)C(O)C(O)C(=O)O
a: 85

q: # query: Inhibition of entry Cc1cccc2nc(-c3ccc(-c4ccc(CNC(C)C)cc4)cc3)[nH]c12.O=C(O)C(F)(F)F
a: 99

q: # query: Inhibition of entry CCn1ccc2c(N3CCCCS3(=O)=O)cc(C(=O)N[C@@H](Cc3ccccc3)[C@H](O)CNC(C)(C)c3cccc(C(F)(F)F)c3)cc21
a: 97

q: # query: Inhibition of entry CCCCNc1cc(NCCCC)c2c(n1)[nH]c1ccccc12
a: 100

q: # query: Inhibition of entry C=CCC(C(=O)Nc1ccnc2ccc(OC)cc12)C1CCN(CCCCCCC)CC1 (stereo not drawn)
a: 86

q: # query: Inhibition of entry Cc1ccc(C)c2sc(N3CCN(C(=O)c4ccc([N+](=O)[O-])o4)CC3)nc12
a: 96

q: # query: Inhibition of entry CC[C@H](C)CNCc1ccc(OCc2cccc(COc3ccc(CNC[C@@H](C)CC)cc3I)c2)c(I)c1.Cl
a: 99

q: # query: Inhibition of entry CC(C)COc1ccc(Cl)cc1Cc1nc(-c2nc3cccc(CN4CCN(C)CC4)c3[nH]2)cs1
a: 99

q: # query: Inhibition of entry COc1ccc(CCNC(=O)c2cc3c(=O)n4cccc(C)c4nc3n(C)c2=N)cc1
a: 99

q: # query: Inhibition of entry COc1ccc(-c2ccc(NC(=O)c3ccc(Cl)cc3)cc2)cc1CN(C)CCO.O=C(O)C(F)(F)F
a: 92

q: # query: Inhibition of entry CCc1c(CCNCCCC(C)CCNCCc2ccc(OC)c(OC)c2CC)ccc(OC)c1OC.Cl (stereo not drawn)
a: 100

q: # query: Inhibition of entry O=C(Nc1cccc(C(F)(F)F)c1)c1cccc(S(=O)(=O)NCC2CCCN(Cc3ccccc3)C2)c1.O=C(O)C(F)(F)F (stereo not drawn)
a: 94

q: # query: Inhibition of entry FC(F)(F)c1ccc(Nc2nnnc3ccccc23)cc1
a: 90

q: # query: Inhibition of entry Nc1c(Cl)cc(C(O)CNCCCCCOCCCc2ccc(O)c3ncccc23)cc1Cl.O=C(O)/C=C/C(=O)O (stereo not drawn)
a: 90

q: # query: Inhibition of entry Cc1cccc2nc(-c3cccc(-c4ccc(NC(=O)NC5CC5c5ccccc5)cc4)c3)[nH]c12 (stereo not drawn)
a: 98

q: # query: Inhibition of entry O=C(Nc1ccon1)c1cc(-c2cccnc2)nc2ccc(Cl)cc12
a: 98

q: # query: Inhibition of entry Cn1c(-c2ccccc2)cc2c3c(N)nc(N)nc3ccc21
a: 100
